- assay-explanation: physchem
- Type: physicochemical
- condition-context: water
readout-name: solubility
Report field: quantity (unit follows the number).

molecule: Nc1ncc2ncn(COCCO)c2n1 [6-Deoxyacyclovir]
solubility: 50 mg/mL

Lab note: next molecule to report on.
Request: Item Nc1nc2c(ncn2COCCO)c(=O)[nH]1 [Acyclovir, 9-(2-hydroxyethoxymethyl)guanine, reference compound] has what recorded solubility?
Result: 1.23 mg/mL

* * *

- assay-explanation: Urinary excretion of acyclovir after oral dosing of rats (radioimmunoassay)
- Format: in vivo, Long Evans male rats
- condition-context: rat, dose 25 mg/kg, urine samples, read-out: %Dose Excreted as Acyclovir
readout-name: dose excreted at 48 h (%)
One number for each entry, in %.

Request: Item Nc1nc2c(ncn2COCCO)c(=O)[nH]1 [Acyclovir, 9-(2-hydroxyethoxymethyl)guanine, reference compound] has what recorded dose excreted at 48 h?
Result: 19.2
